tested on: OVCAR-4; experiment: NCI tumour cell line growth inhibition, 48 h
Active and inactive are the calls of the source. Rule as the data show it: active = GI50 up to about 1.1 µM and inactive = higher.
Hello, when you answer, please use one of the following outcomes: active, inactive

Please review the following examples before continuing.
INSERT INTO results (compound, qualitative_label) VALUES
  ('COc1cccc(N2C(=O)CSC2c2c[nH]c3ccccc23)c1 (stereo not drawn)', 'inactive'),
  ('O=c1c2c(F)c(F)c(F)c(F)c2sc2nccn12', 'inactive'),
  ('C=CCOC1=C(OC(C)=O)C(C2COC(C)(C)O2)OC1=O (stereo not drawn)', 'inactive');

GET /call?item= COc1ccc(C2=CC3CCC2C3)cc1 (stereo not drawn) returns the recorded outcome of this test.
inactive

GET /call?item= COc1ccc2c(C3(O)CCNCC3)c[nH]c2c1 returns the recorded outcome of this test.
inactive

GET /call?item= COc1nn(Cc2ccccn2)c2ccc([N+](=O)[O-])cc12 returns the recorded outcome of this test.
inactive

GET /call?item= Cc1ccc(-c2cc(-c3cc(-c4ccc(C)cc4C)[nH]n3)[nH]n2)c(C)c1 returns the recorded outcome of this test.
inactive

GET /call?item= COc1cc([C@@]23OC[C@@H]4[C@@H](OC[C@@H]42)c2cc4c(cc23)OCO4)cc(OC)c1OC returns the recorded outcome of this test.
inactive

GET /call?item= Cc1ccc(NS(=O)(=O)c2cc(C(C)(C)C)ccc2OCCOCCOCCOc2ccc(C(C)(C)C)cc2S(=O)(=O)Nc2ccc(C)cc2)cc1 returns the recorded outcome of this test.
inactive

GET /call?item= Cc1c(-c2ccccc2)c(C#N)c2nnn(-c3ccccc3)c(=O)n12 returns the recorded outcome of this test.
inactive

GET /call?item= O=C(Nc1ccccc1)N(C1=NCC(CI)S1)c1ccc(F)cc1F (stereo not drawn) returns the recorded outcome of this test.
inactive

GET /call?item= COc1ccccc1N1CCN(CCCN2C(C(=O)c3ccccc3)=C(O)c3c(C)cc(C)nc3S2(=O)=O)CC1 returns the recorded outcome of this test.
inactive

GET /call?item= C=C1C(=O)OC2/C=C(/C)C3(O)OC(C)(CC(OC(=O)C(C)C)C12)CC3OC(C)=O (stereo not drawn) returns the recorded outcome of this test.
inactive

GET /call?item= CC(C)(C)OC(=O)NCC(=O)N(CCc1ccc(Cl)c(Cl)c1)CCN1CCCC1 returns the recorded outcome of this test.
inactive

GET /call?item= CCOC(=O)c1cc(C(=O)c2ccccc2)n2nc(-c3ccc(Cl)cc3)ccc12 returns the recorded outcome of this test.
inactive

GET /call?item= COc1cc(C(C)c2cc3c(cc2OCCCCOc2cc4c(cc2C(C)c2cc(OC)c(OC)c(OC)c2)OCO4)OCO3)cc(OC)c1OC (stereo not drawn) returns the recorded outcome of this test.
inactive

GET /call?item= Cc1ccc(Cc2nn(C)c(=O)n2-n2cccc2)cc1 returns the recorded outcome of this test.
inactive

GET /call?item= COP(=O)(OC)/C(=C\C1=CN(C(c2ccccc2)(c2ccccc2)c2ccccc2)CN1)NC=O returns the recorded outcome of this test.
inactive

GET /call?item= CCCCCC[C@H]1C(=O)O[C@H](C)[C@H](NC(=O)c2cccc(NC=O)c2OC)C(=O)O[C@@H](C)[C@@H]1OC(=O)C(C)CC.CCCCCC[C@H]1C(=O)O[C@H](C)[C@H](NC(=O)c2cccc(NC=O)c2OC)C(=O)O[C@@H](C)[C@@H]1OC(=O)CC(C)C (stereo partly drawn) returns the recorded outcome of this test.
inactive

GET /call?item= O=C1C=CC(O)(C#CCO)C=C1 returns the recorded outcome of this test.
inactive
